src = the supplement of paper PMC5908809

Tested on: NK-YS (IL-2 2.5 ng/mL)
Experiment: drug sensitivity score (DSS) (DSS units); higher = more sensitive; extreme values may be limits of the assay
Details: 72 h
Label TRUE when drug sensitivity score is at or above 1; anything below gets FALSE.

A selection of reference data follows.
>  <Molecule>
CS(=O)(=O)c1ccc(-c2cnc(N)c(C(=O)Nc3ccccc3)n2)cc1 [VE-821] (max concentration tested 10000 nM)

>  <Target system>
NK-YS (IL-2 2.5 ng/mL)

>  <Category label>
TRUE

$$$$
>  <Molecule>
COc1cc(OC2CCN(C)CC2)ccc1Nc1ncc2c(n1)n(C1CCCC1)c(=O)n2C [AZ 3146] (max concentration tested 10000 nM)

>  <Target system>
NK-YS (IL-2 2.5 ng/mL)

>  <Category label>
TRUE

$$$$
>  <Molecule>
CCCCc1nc2cc(/C=C/C(=O)NO)ccc2n1CCN(CC)CC [Pracinostat] (max concentration tested 10000 nM)

>  <Target system>
NK-YS (IL-2 2.5 ng/mL)

>  <Category label>
TRUE

$$$$
>  <Molecule>
O=C(Cc1ccc(-c2ccc(OCCN3CCOCC3)cc2)cn1)NCc1ccccc1 [KX2-391] (max concentration tested 10000 nM)

>  <Target system>
NK-YS (IL-2 2.5 ng/mL)

>  <Category label>
TRUE

$$$$
>  <Molecule>
Nc1nc(F)nc2c1ncn2[C@@H]1O[C@H](CO)[C@@H](O)[C@@H]1O [Fludarabine] (max concentration tested 10000 nM)

>  <Target system>
NK-YS (IL-2 2.5 ng/mL)

>  <Category label>
FALSE

$$$$
>  <Molecule>
CN1CCC(COc2cnc(-c3cccc(Cn4nc(-c5cccc(C#N)c5)ccc4=O)c3)nc2)CC1 (max concentration tested 1000 nM)

>  <Target system>
NK-YS (IL-2 2.5 ng/mL)

>  <Category label>
FALSE

$$$$
>  <Molecule>
Cn1cc(-c2cnn3c(N)c(Br)c([C@@H]4CCCNC4)nc23)cn1 [MK-8776] (max concentration tested 2500 nM)

>  <Target system>
NK-YS (IL-2 2.5 ng/mL)

>  <Category label>
TRUE

$$$$
>  <Molecule>
CN(C)CCOc1ccc(/C(=C(/CCCl)c2ccccc2)c2ccccc2)cc1 [Toremifene] (max concentration tested 10000 nM)

>  <Target system>
NK-YS (IL-2 2.5 ng/mL)

>  <Category label>
FALSE

$$$$
>  <Molecule>
COc1cccc2c1C(=O)c1c(O)c3c(c(O)c1C2=O)C[C@@](O)(C(=O)CO)C[C@@H]3O[C@H]1C[C@H](N)[C@H](O)[C@H](C)O1 [Doxorubicin] (max concentration tested 1000 nM)

>  <Target system>
NK-YS (IL-2 2.5 ng/mL)

>  <Category label>
TRUE

$$$$
>  <Molecule>
N#Cc1ccc(C(c2ccc(C#N)cc2)n2cncn2)cc1 [Letrozole] (max concentration tested 10000 nM)

>  <Target system>
NK-YS (IL-2 2.5 ng/mL)

>  <Category label>
FALSE

$$$$

Query: Record Oc1ncnc2[nH]ncc12 [Allopurinol] (max concentration tested 10000 nM) ; criterion: drug sensitivity score no lower than 1. Met?
Reply: TRUE

Query: Record C=CCNC1=C2C[C@@H](C)C[C@H](OC)[C@H](O)[C@@H](C)/C=C(\C)[C@H](OC(N)=O)[C@@H](OC)/C=C\C=C(/C)C(=O)NC(=CC1=O)C2=O [Tanespimycin] (max concentration tested 10000 nM) ; criterion: drug sensitivity score no lower than 1. Met?
Reply: TRUE

Query: Record CC(C)c1cc(-c2n[nH]c(=O)n2-c2ccc3c(ccn3C)c2)c(O)cc1O [Ganetespib] (max concentration tested 1000 nM) ; criterion: drug sensitivity score no lower than 1. Met?
Reply: TRUE

Query: Record Cc1ccc(NC(=O)c2ccc(CN3CCN(C)CC3)cc2)cc1Nc1nc(-c2cccnc2)cs1 [Masitinib] (max concentration tested 10000 nM) ; criterion: drug sensitivity score no lower than 1. Met?
Reply: TRUE

Query: Record Nc1nc(N)c2nc(-c3cccc(O)c3)c(-c3cccc(O)c3)nc2n1 [TG100-115] (max concentration tested 10000 nM) ; criterion: drug sensitivity score no lower than 1. Met?
Reply: FALSE
